- Measurement Target: Dpy-30 (Homo sapiens)
- Assay Method Text: Ni-NTA pulldown of GST-tagged RSP3 peptides with His-tagged human Dpy-30 protein
- Format: binding
- Parameters: made in house; host or cells: E. coli BL21(DE3), co-expressed with the GST-RSP3 peptides
- Measurement Conditions: full-length human His-Dpy-30 co-expressed with GST-RSP3 peptide
No end group written: not given here.
Endpoint Label: co-purification / pulldown with His-Dpy-30

| Substance | Result |
| --- | --- |
| GST-RSP3280-306: GST-tagged Chlamydomonas RSP3 fragment a.a. 280-306 (PWLKEQAIGYLARGVVARRVVDKLVED; also: GST tag) | not |
| GST-RSP3280-316: GST-tagged Chlamydomonas RSP3 fragment a.a. 280-316 (PWLKEQAIGYLARGVVARRVVDKLVEDAAAALAANRS; also: GST tag) | pulled down |
| GST-RSP3280-308: GST-tagged RSP3 fragment a.a. 280-308, the Dpy-30-binding amphipathic helix AHD (PWLKEQAIGYLARGVVARRVVDKLVEDAA; also: GST-tagged (fusion)) | pulled down |

###

- Measurement Target: Dpy-30 (Homo sapiens, UniProt Q9C005)
- Sequence (Q9C005 whole entry): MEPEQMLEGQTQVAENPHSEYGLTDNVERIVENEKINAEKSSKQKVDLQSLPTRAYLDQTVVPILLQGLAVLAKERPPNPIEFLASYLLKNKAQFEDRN
- Assay Method Text: Ni-NTA pulldown of GST-hAsh2 peptides with His-Dpy-30
- Format: binding
- Parameters: Dpy-30 fragments, full length or a.a.#49-99, were amplified using purchased IMAGE cDNA clone #4081996 as a template; made in house; host or cells: E. coli BL21(DE3); key: “+” or “−” indicates if the peptides were or were not evidently co-purified with Dpy-30; “+” or “−” indicates if the peptides were or were not evidently co-purified with Dpy-30
- Measurement Conditions: GST-fused hAsh2 peptides, Ni-NTA pulldown, Coomassie-stained SDS-PAGE
No end group written: not given here.
Endpoint Label: co-purified with Dpy-30

| Substance | Measurement Target | Endpoint Label | Result |
| --- | --- | --- | --- |
| PMSDMGWGAVVEHTLAD----------GRRS (PMSDMGWGAVVEHTLADGRRS; also: GST fusion) [Δ610-619, GST-hAsh2593-623 with a.a. #610-619 deleted] | Dpy-30 (Homo sapiens, UniProt Q9C005) | co-purified with Dpy-30 | − |
| PMSDMGWGAVVKHTLADVLYHVETEVDGRRS (also: GST fusion) [E604K, GST-hAsh2593-623 with E604 mutated to K] | Dpy-30 (Homo sapiens, UniProt Q9C005) | co-purified with Dpy-30 | + |
| PMSDMGWGAVVEHTLADVLYH------GRRS (PMSDMGWGAVVEHTLADVLYHGRRS; also: GST fusion) [Δ614-619, GST-hAsh2593-623 with VETEVD deleted] | Dpy-30 (Homo sapiens, UniProt Q9C005) | co-purified with Dpy-30 | − |
| PMSDMGPGAVVEHTLADVLYHVETEVDGRRS [W500P] | Dpy-30 (Homo sapiens, UniProt Q9C005) | co-purified with Dpy-30 | − |
